Target: High affinity nerve growth factor receptor (Homo sapiens);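 note: each value is a mean of replicate percent inhibition readings against TRKA kinase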
Settings: at 0.1 µM
We begin with a simple list: items and their reported inhibition.
Readout Label: inhibition

Compound Smiles: COc1cc(N2CCN(C(C)C)CC2)ccc1Nc1nc(Nc2cccc(F)c2C(=O)O)c2cc[nH]c2n1
Test Result: 4.69%
--
Compound Smiles: NC(=O)c1ccc2c(-c3ccnc(NCCCO)n3)c(-c3ccc(F)cc3)nn2c1
Test Result: 3.75%
--
Compound Smiles: COC(=O)Nc1nc2cc(Oc3ccc(NC(=O)Nc4ccccc4)cc3)ccc2[nH]1
Test Result: 2.62%
--
Compound Smiles: Cc1cc(O)cc(C)c1/C=C/c1cncc(C(N)=O)c1
Test Result: 4.13%
--
Compound Smiles: CCN1CCC(C(=O)Nc2n[nH]c3nnc(-c4cccc(F)c4F)cc23)CC1
Test Result: 1.95%
--
Compound Smiles: CN(c1ccc(NC(=O)NCCN2CCOCC2)cc1)c1ccnc(Nc2ccc(CS(C)(=O)=O)cc2)n1
Test Result: 1.46%
--
Compound Smiles: CN(C)CCNC(=O)Nc1ccc(N(C)c2ccnc(Nc3ccc(CS(C)(=O)=O)cc3)n2)cc1
Test Result: 1.76%
--
Compound Smiles: O=C1Nc2ccccc2/C1=C1\CCc2cc(O)ccc21
Test Result: 18.6%
--
Compound Smiles: CC(C)c1ccc(-c2cc(-c3c[nH]nc3-c3ccccn3)ccn2)cc1
Test Result: 0.99%
--
Compound Smiles: NS(=O)(=O)c1ccc(N/N=C2\C(=O)Nc3ccc(C(=O)NCc4ccncc4)cc32)cc1
Test Result: 4.11%
--
Compound Smiles: CS(=O)(=O)Nc1ccc(-c2ccc3c(NC(=O)C4CC4)n[nH]c3c2)cc1
Test Result: 2.98%
--
Compound Smiles: Cn1c(-c2nonc2N)nc2cnccc21
Test Result: 1.03%
--
Compound Smiles: c1ccc(-c2n[nH]cc2-c2ccnc(-c3ccc(OCCn4ccnc4)cc3)c2)nc1
Test Result: 2.17%
--
Compound Smiles: COc1ccc(-c2nn3ncccc3c2-c2ccnc(Nc3ccc(F)c(F)c3)n2)cc1
Test Result: 1.54%
--
Compound Smiles: CCn1c(-c2nonc2N)nc2cncc(C(=O)NCCNC)c21
Test Result: 1.96%
--
Compound Smiles: COc1cc2c(cc1Nc1nc(Nc3cccc(F)c3C(N)=O)c3cc[nH]c3n1)N(C(=O)CN1CCN(C(C)C)CC1)CC2
Test Result: 1.48%

Provenance of the data: ChEMBL document CHEMBL1961873
